Property: PBM binding z-score; scope: individual sequences
tested on: PPARg DBDmut IVT, anti-PPARg (DBD mutation: PPARg1 K132A/R137A, NR concentration 270 nM); experiment: PBM binding z-score (relative to random genomic background probes); higher = stronger binding; sequences stand for … in GC…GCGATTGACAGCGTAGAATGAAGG
ATTRIBUTE_MEASURED: PBM binding z-score

[[record]]
ordered_residues = "AGAATGAGGTTACCAAAGAACAGGGAAACGCTTG"
target_of_assay = "PPARg DBDmut IVT, anti-PPARg (DBD mutation: PPARg1 K132A/R137A, NR concentration 270 nM)"
numeric_readout = 0.163

[[record]]
ordered_residues = "CGTCCAAGGTCAAAGAGGTCAGTGAATGCCGAGT"
target_of_assay = "PPARg DBDmut IVT, anti-PPARg (DBD mutation: PPARg1 K132A/R137A, NR concentration 270 nM)"
numeric_readout = -0.987

[[record]]
ordered_residues = "AGAATGAGGATATTAAGATCAGGGAATTGCGGTC"
target_of_assay = "PPARg DBDmut IVT, anti-PPARg (DBD mutation: PPARg1 K132A/R137A, NR concentration 270 nM)"
numeric_readout = 0.486

[[record]]
ordered_residues = "TCTATTAGTTGAAGCGCAACCGACGAGTCCGTTT"
target_of_assay = "PPARg DBDmut IVT, anti-PPARg (DBD mutation: PPARg1 K132A/R137A, NR concentration 270 nM)"
numeric_readout = 1.23

[[record]]
ordered_residues = "AGAATGAGGTTAATATCAGGGAAACAGAATACAT"
target_of_assay = "PPARg DBDmut IVT, anti-PPARg (DBD mutation: PPARg1 K132A/R137A, NR concentration 270 nM)"
numeric_readout = 0.794

[[record]]
ordered_residues = "GGAACGAGAGCAAGTTGATAGCAGAGTTTGATGG"
target_of_assay = "PPARg DBDmut IVT, anti-PPARg (DBD mutation: PPARg1 K132A/R137A, NR concentration 270 nM)"
numeric_readout = -0.825

[[record]]
ordered_residues = "TCTGCTAGGTCAACGATGTTCAGCTAATCTGCTA"
target_of_assay = "PPARg DBDmut IVT, anti-PPARg (DBD mutation: PPARg1 K132A/R137A, NR concentration 270 nM)"
numeric_readout = 0.546

[[record]]
ordered_residues = "CCTAGCAGGACAGGGTCACTCAAGCATTTCGCTT"
target_of_assay = "PPARg DBDmut IVT, anti-PPARg (DBD mutation: PPARg1 K132A/R137A, NR concentration 270 nM)"
numeric_readout = -1.5

[[record]]
ordered_residues = "TATGCAGGGTCAAAGGCCAGAGTACGAATGTCGA"
target_of_assay = "PPARg DBDmut IVT, anti-PPARg (DBD mutation: PPARg1 K132A/R137A, NR concentration 270 nM)"
numeric_readout = 0.66

[[record]]
ordered_residues = "ACTAGTTGGTCAGCTGATGTCACACACAATTCGG"
target_of_assay = "PPARg DBDmut IVT, anti-PPARg (DBD mutation: PPARg1 K132A/R137A, NR concentration 270 nM)"
numeric_readout = 0.51

[[record]]
ordered_residues = "CAAACTAGGTCACGCAAGGTCAAAGTCGAATGAC"
target_of_assay = "PPARg DBDmut IVT, anti-PPARg (DBD mutation: PPARg1 K132A/R137A, NR concentration 270 nM)"
numeric_readout = 5.78

[[record]]
ordered_residues = "TTACCAAGGTGAAGGTTGTTGATCCCTCTGTAGA"
target_of_assay = "PPARg DBDmut IVT, anti-PPARg (DBD mutation: PPARg1 K132A/R137A, NR concentration 270 nM)"
numeric_readout = -0.108

[[record]]
ordered_residues = "ATCGAAAGGTCGAGGTGAGTCTAGAGAAAGGGAA"
target_of_assay = "PPARg DBDmut IVT, anti-PPARg (DBD mutation: PPARg1 K132A/R137A, NR concentration 270 nM)"
numeric_readout = 0.961

[[record]]
ordered_residues = "CATACAGGGCCAGCTAGGCCAGAGTAGGGACGGC"
target_of_assay = "PPARg DBDmut IVT, anti-PPARg (DBD mutation: PPARg1 K132A/R137A, NR concentration 270 nM)"
numeric_readout = -0.903

[[record]]
ordered_residues = "CGAACGAGGGCATGAGTTGATAGTAAATGCCGAT"
target_of_assay = "PPARg DBDmut IVT, anti-PPARg (DBD mutation: PPARg1 K132A/R137A, NR concentration 270 nM)"
numeric_readout = 0.201

[[record]]
ordered_residues = "CGAACGAGGGCATGAGATGATAGCAAATGCCGAT"
target_of_assay = "PPARg DBDmut IVT, anti-PPARg (DBD mutation: PPARg1 K132A/R137A, NR concentration 270 nM)"
numeric_readout = -0.282

[[record]]
ordered_residues = "ACTAGCAGGCCAAGTTTGGGTCACACAAACAAAG"
target_of_assay = "PPARg DBDmut IVT, anti-PPARg (DBD mutation: PPARg1 K132A/R137A, NR concentration 270 nM)"
numeric_readout = -0.339

[[record]]
ordered_residues = "TCTCAGAGGACACGAAAGGTCAGAGCTCGACATC"
target_of_assay = "PPARg DBDmut IVT, anti-PPARg (DBD mutation: PPARg1 K132A/R137A, NR concentration 270 nM)"
numeric_readout = -0.022

[[record]]
ordered_residues = "CGTCCAAGGTCAGCAGGTCAGTGAAAGCGACGTG"
target_of_assay = "PPARg DBDmut IVT, anti-PPARg (DBD mutation: PPARg1 K132A/R137A, NR concentration 270 nM)"
numeric_readout = -0.0279

[[record]]
ordered_residues = "CAAACTAGGTCAAACGTCAAAGTCGAGCCAACCA"
target_of_assay = "PPARg DBDmut IVT, anti-PPARg (DBD mutation: PPARg1 K132A/R137A, NR concentration 270 nM)"
numeric_readout = 4.15

[[record]]
ordered_residues = "ACTATTACTTGAGACGAGGGCAACCGATAGGTTG"
target_of_assay = "PPARg DBDmut IVT, anti-PPARg (DBD mutation: PPARg1 K132A/R137A, NR concentration 270 nM)"
numeric_readout = 1.3

[[record]]
ordered_residues = "AGTCAAAGTTCATCTAGGTAACGTGAGATATGCT"
target_of_assay = "PPARg DBDmut IVT, anti-PPARg (DBD mutation: PPARg1 K132A/R137A, NR concentration 270 nM)"
numeric_readout = 0.803

[[record]]
ordered_residues = "GCGACTGGGGCATGAGCAGGTTACCATAACTTAA"
target_of_assay = "PPARg DBDmut IVT, anti-PPARg (DBD mutation: PPARg1 K132A/R137A, NR concentration 270 nM)"
numeric_readout = -0.475

[[record]]
ordered_residues = "ATCGAAAGGTGGTGAGGTGAGTATACAGAAAGGC"
target_of_assay = "PPARg DBDmut IVT, anti-PPARg (DBD mutation: PPARg1 K132A/R137A, NR concentration 270 nM)"
numeric_readout = 1.51

[[record]]
ordered_residues = "ATACCAAGGTGATCGTAAGGTCGTTGATACTAAC"
target_of_assay = "PPARg DBDmut IVT, anti-PPARg (DBD mutation: PPARg1 K132A/R137A, NR concentration 270 nM)"
numeric_readout = 0.646

[[record]]
ordered_residues = "CGCACTAGGTCAAGGACAGTGAATCTCCGCACGC"
target_of_assay = "PPARg DBDmut IVT, anti-PPARg (DBD mutation: PPARg1 K132A/R137A, NR concentration 270 nM)"
numeric_readout = 0.566

